Source listed as BindingDB's records for patent US12410160.

Target protein (sequence): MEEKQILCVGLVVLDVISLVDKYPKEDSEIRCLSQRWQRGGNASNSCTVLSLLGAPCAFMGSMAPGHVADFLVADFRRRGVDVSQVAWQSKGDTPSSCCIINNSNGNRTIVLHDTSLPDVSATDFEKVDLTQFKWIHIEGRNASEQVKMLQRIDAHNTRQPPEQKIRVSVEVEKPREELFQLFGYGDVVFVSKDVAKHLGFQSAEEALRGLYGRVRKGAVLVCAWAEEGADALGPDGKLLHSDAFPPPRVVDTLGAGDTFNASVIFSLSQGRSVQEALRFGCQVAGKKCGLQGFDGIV
Consider the cut-off 30 nM. If the recorded IC50 is strictly smaller, the label is y; if not, the label is n.

Before answering, review these 4 worked examples.
N#C[C@H]1CCN1c1nc(-c2ccc([C@@H](N)C(F)F)cc2)c2c(n1)C(F)(F)CC2: y
C[C@H]1[C@H](O)CN1c1nc(-c2ccc3c(c2)C(NS(C)(=O)=O)CC3)c2c(n1)C(F)(F)CC2 (stereo partly specified): y
C[C@H]1[C@H](O)CN1c1nc(-c2ccc3c(c2)CCC32COCCC(=O)N2)c2c(n1)C(F)(F)CC2 (stereo partly specified): n
C[C@H]1[C@H](O)CN1c1nc(-c2cn(C3CNC3)nn2)c2c(n1)C(F)(F)CC2: y

We now examine a further compound.
IN: Threshold test, IC50 < 30 nM: C[C@H]1CCN1c1nc2c(c(-c3cccc(S(N)(=O)=O)n3)n1)CCC2
OUT: y

====

// log10 of IC50 lookup, one value per entry
Target: Ketohexokinase (Human, UniProt P50053)
Each number you see is log10 of IC50, and the unit inside the log is µM.

Consider the following illustrative entries.
C[C@H]1CCN1c1nc(-c2ccc(C(N)=O)cc2)c2cn[nH]c2n1 [US12410160, Example 401]: 0.67
C[C@H]1CCN1c1nc2c(c(-c3ccc(CNS(C)(=O)=O)cc3)n1)CCC2 [US12410160, Example 361]: -1.52
C[C@H]1CCN1c1nc(-c2cccc(C(N)=O)c2)c2c(n1)C1CC1C2 (some centres not stated) [US12410160, Example 272]: -0.50
C[C@H]1[C@H](O)CN1c1nc(-c2ccc3c(c2)S(=O)(=O)CC3NS(C)(=O)=O)c2c(n1)C(F)(F)CC2 (some centres not stated) [US12410160, Example 665]: -3.05
C[C@H]1[C@H](O)CN1c1nc(-c2ccc3c(c2)CCS3(=N)=O)c2c(n1)C(F)(F)CC2 (some centres not stated) [US12410160, Example 664]: -1.76
C[C@H]1CCN1c1nc2c(c(-c3cn(CCO)nn3)n1)CCC2 [US12410160, Example 645]: -0.80

Kindly consider the entry below.
IN: Give log10 of IC50 for this entry on Ketohexokinase (Human, UniProt P50053): C[C@H]1CCN1c1nc(-c2cccc(-n3ccnn3)c2)c2c(n1)C(F)(F)CC2 [US12410160, Example 654]
OUT: -1.79

====

Biological target: Isoform A of Ketohexokinase (Peripheral) (Human)
Assay: KHK Biochemical Assay
measured_property: pIC50
Note on units: pIC50 is unitless, being -log10 of a concentration expressed in mol/L.

C[C@H]1[C@H](O)CN1c1nc(-c2cccc(S(=N)(=O)CC#N)c2)c2c(n1)C(F)(F)CC2 (some centres not stated) [US12410160, Example 628]: 7.99
C[C@H]1CCN1c1nc(-c2cccc(C(N)=O)c2)c2c(n1)C1CC1C2 (some centres not stated) [US12410160, Example 272]: 6.57
C[C@H]1CCN1c1nc2c(c(-c3ccnc(F)c3)n1)CCC2 [US12410160, Example 281]: 6.47
C[C@H]1CCN1c1nc2c(c(-c3ccc4c(c3)C(=O)N(C)C4)n1)CCC2 [US12410160, Example 206]: 7.61
C[C@H]1CCN1c1nc2c(c(-c3ccc(CNS(C)(=O)=O)cc3)n1)CCC2 [US12410160, Example 361]: 7.16

IN: # assay system Isoform A of Ketohexokinase (Peripheral) (Human): give pIC50 of C[C@H]1CCN1c1nc2c(c(-c3cccc(S(N)(=O)=O)n3)n1)CCC2 [US12410160, Example 223]
OUT: 7.47

====

Target: Isoform A of Ketohexokinase (Peripheral) (Human, UniProt P50053)
Assay: KHK Biochemical Assay
measured_property: pIC50
Quick note: pIC50 means taking -log10 of the concentration in moles per liter.

Answered examples (3):
C[C@H]1[C@H](F)CN1c1nc2c(c(-c3cccc(S(N)(=O)=O)c3)n1)CCOC2: 6.16
C[C@H]1CCN1c1nc2c(c(-c3cncn3C)n1)CCC2: 6.88
C[C@H]1CCN1c1nc2c(c(-c3ccc(C4(NS(C)(=O)=O)CC4)cc3)n1)CCC2: 6.55

Now look at this one.
IN: Give pIC50 for C[C@H]1[C@H](O)CN1c1nc2c(c(-c3ccc4c(N)nccc4c3)n1)CCC2
OUT: 8.38

====

IC50 by entry:
Target: Isoform A of Ketohexokinase (Peripheral) (Human)
Sequence (P50053 whole entry): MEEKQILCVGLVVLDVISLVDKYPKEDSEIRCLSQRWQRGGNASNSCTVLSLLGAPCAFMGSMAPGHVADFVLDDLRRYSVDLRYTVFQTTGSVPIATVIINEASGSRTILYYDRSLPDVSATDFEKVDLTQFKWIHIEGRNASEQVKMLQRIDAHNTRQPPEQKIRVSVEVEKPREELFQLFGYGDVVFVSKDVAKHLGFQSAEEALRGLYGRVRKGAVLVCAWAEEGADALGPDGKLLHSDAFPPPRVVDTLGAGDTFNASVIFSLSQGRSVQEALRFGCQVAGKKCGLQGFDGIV
Assay: KHK Biochemical Assay
Express the reported value numerically, then name its unit.

C[C@H]1CCN1c1nc2c(c(-c3ccnc(S(N)(=O)=O)c3)n1)CCC2: 155 nM
C[C@H]1[C@H](O)CN1c1nc(-c2ccc3c(c2)COC[C@@H]3NS(=O)(=O)CF)c2c(n1)C(F)(F)CC2: 13 nM

IN: Determine reported IC50 for FC1(F)CCc2c(-c3ccc4c(c3)OC[C@@H]4NC3COC3)nc(N3CC[C@@H]3C(F)(F)F)nc21 ; test system: Isoform A of Ketohexokinase (Peripheral) (Human).
OUT: 9.3 nM

IN: State measured IC50 of the compound C[C@H]1[C@H](F)CN1c1nc2c(c(-c3cccc(CN)c3)n1)CCC2 with Isoform A of Ketohexokinase (Peripheral) (Human).
OUT: 35.6 nM

IN: Name the value of IC50 reported for CCOC(=O)NCc1ccc(-c2nc(N3CC[C@@H]3C)nc3c2CCC3)cc1 when tested on Isoform A of Ketohexokinase (Peripheral) (Human).
OUT: 435 nM

IN: Please respond with reported IC50 (system Isoform A of Ketohexokinase (Peripheral) (Human)) for C[C@H]1CCN1c1nc2c(c(-c3cccc(C4(N)CC4)c3)n1)CCC2 .
OUT: 294 nM

====

Listing of recorded IC50 by entry.
Target: Isoform A of Ketohexokinase (Peripheral) (Human, UniProt P50053)
Assay: KHK Biochemical Assay
A number alone suffices; assume nM.

Below are worked cases with known answers.
C[C@H]1[C@H](F)CN1c1nc2c(c(-c3ccc4c(c3)C(=O)N(C)C4)n1)CCC2 [US12410160, Example 203]: 66.5
COc1ccc(-c2nc(N3CC[C@@H]3C(F)(F)F)nc3c2CCC3(F)F)cc1[S@@](C)(=N)=O [US12410160, Example 825]: 0.5

Let us move to another entry and its IC50.
IN: Indicate the recorded IC50 value for this compound: COC(=O)N[C@H]1COc2cc(-c3nc(N4C[C@@H](O)[C@@H]4C)nc4c3CCC4(F)F)ccc21 [US12410160, Example 814]
OUT: 71.3
